Tested on: T-47D breast
ASSAY COMMENT: NCI-60 one-dose screen, 48 h (100 = growth as untreated, 0 = no growth, -100 = all killed)
CONDITION DETAILS: 10 µM unless noted
The panel holds about 83,000 compounds, 20% with a hit somewhere; the sample as a whole holds those more often.
Quick rule for you: growth at 60% or higher means t, lower means f.

Illustrative cases are given below, each with its answer.
CO[C@H]1/C=C(/C)CCC[C@H](C)[C@H](O)[C@@H](C)C(=O)C(C)(C)[C@@H](O)CC(=O)O[C@@H]1/C(C)=C/c1csc(C)n1    f
O=C1/C(=C/c2cccs2)SC(=S)N1CCCN1CCOCC1    t
O=[N+]([O-])C1C(c2ccccc2)C12c1ccccc1-c1ccccc12 (stereo not given)    f
CCN(CC)CCCN1C(=O)c2c(c(C)c3c(oc4cc(O)ccc43)c2C)C1=O    t
C/C(=N\NC(=O)c1ccccc1O)c1cccc(/C(C)=N/NC(=O)c2ccccc2O)n1    f
CCOC(=O)/C=C1\S/C(=N\Nc2cc(=O)[nH]c3ccc(Cl)cc23)N(c2ccccc2)C1=O    t

Q. For this compound, is measured growth 60% or higher? `COc1cnc2c(c1)C(=O)c1c-2n(CCCNCCO)c(=O)c2ccncc12`
A. f

Q. Also check `CN(C)CCNc1nc2c3cc(Cl)ccc3nn2c2ccccc12`
A. t

Q. Also check CC(O)c1cnc(/C=C2\SC(=S)N(Cc3ccccc3)C2=O)s1 (stereo not given)
A. f

Q. Also check `CCN1CC(=O)N(/N=C2\C(=O)Nc3ccccc32)C1=S`
A. t

====

Test system: U251 CNS
ASSAY COMMENT: NCI-60 one-dose screen, 48 h (100 = growth as untreated, 0 = no growth, -100 = all killed)
CONDITION DETAILS: 10 µM unless noted
Compounds without any hit were thinned out: in the full panel of roughly 83,000, 20% have a hit.
MEASURE: growth (%)
Answer in %, number only, no unit symbol.

Q. Please report the recorded growth for `C=C1C(=O)O[C@H]2[C@H]1CC/C(COC(=O)N[C@H]1C[C@H](O[C@H]3C[C@](O)(C(=O)CO)Cc4c(O)c5c(c(O)c43)C(=O)c3c(OC)cccc3C5=O)O[C@@H](C)[C@H]1O)=C\CC[C@@]1(C)O[C@@H]21` .
A. 45.3

Q. Also check COc1cc(OC)cc(C2=C3CC[C@@H]4[C@H](CC[C@]5(C)C(=O)CC[C@@H]45)C3=CC3C(O)c4cccnc4N4C(=O)COC234)c1 (some centres undefined)
A. 93.8

Q. Also check `COc1ccc(-c2ccc3cnc4sc(-c5ccc(OC)cc5)nc4c3n2)cc1`
A. 94.4

====

System: M14 melanoma
ASSAY COMMENT: NCI-60 one-dose screen, 48 h
CONDITION DETAILS: 10 µM unless noted
Compounds without any hit were thinned out: in the full panel of roughly 83,000, 20% have a hit. The source made the active and inactive calls. How the source made its calls: active means growth percent below 10; inactive means the rest.
Please answer using one outcome listed in active, inactive

O=C(Cn1cc(CN2CCCCCC2)nn1)Nc1ccc2c(ccn2Cc2ccccc2)c1    inactive
C=CC(=O)NCc1ccc(Nc2nccc(-c3ccc(N4CCCC4)c(C#N)c3)n2)cc1    inactive
COc1cc(-c2cc(-c3cccs3)c(C#N)c(N3CCOCC3)n2)cc(OC)c1OC    inactive
Fc1cc2c(cc1Cl)N(c1ncnc3ccc(-c4cnc5[nH]ncc5c4)cc13)CC2    inactive

Then this compound:
Q. Give the logged outcome of this assay for the following compound: CCc1ccc(C(=O)/C=C/C23c4ccccc4C(c4ccccc42)C2C(=O)NC(=O)C23)cc1 (stereo not given)
A. active

====

Test system: LOX IMVI melanoma
ASSAY COMMENT: NCI-60 one-dose screen, 48 h (100 = growth as untreated, 0 = no growth, -100 = all killed)
CONDITION DETAILS: 10 µM unless noted
This is part of a sample that, as a whole, favours compounds with a hit. Of some 83,000 tested, about 20% had one in any assay.
# growth annotations
Answer in %, number only, no unit symbol.

# count of solved cases: 4
CS(=O)(=O)c1cccc(-c2c(-c3cccc(OS(N)(=O)=O)c3)nc3sccn23)c1    95.6
CCCc1cc(NC)nc(S(=O)(=O)CC)n1    103
CC(=O)OC[C@]12CCC(C)(C)C[C@H]1[C@@]1(O)[C@H](O)C[C@@H]3[C@@]4(C)CCCNC(C)(C)[C@@H]4CC[C@@]3(C)[C@]1(C)CC2    106
N#Cc1nn(-c2cc(=O)[nH]c3ccc(Cl)cc23)c(N)c1C#N    96.6

Q. Please report the recorded growth for `O=C(CSc1nc2ccc([N+](=O)[O-])cc2[nH]1)Nc1ccc(F)cc1` .
A. 64.8

Q. Also check COC(C(=O)[C@@H](O)[C@@H](C)O)[C@@H]1Cc2cc3cc(O[C@H]4C[C@@H](O[C@H]5C[C@@H](O)[C@H](O)C(C)O5)[C@H](O)C(C)O4)c(C)c(O)c3c(O)c2C(=O)[C@H]1O[C@H]1C[C@@H](O[C@H]2C[C@@H](O[C@H]3C[C@@H](O)[C@H](OC)C(C)O3)[C@@H](O)C(C)O2)[C@H](O)C(C)O1 (some centres not stated)
A. -8.28

Q. Also check C[C@]12C=CC(=O)C=C1CCC1C2[C@@H](O)C[C@@]2(C)C1CC[C@]2(O)C(=O)COC(=O)CCC(=O)O (some centres not stated)
A. 102

====

# growth annotations
Test system: NCI-H226 lung
ASSAY COMMENT: NCI-60 one-dose screen, 48 h (100 = growth as untreated, 0 = no growth, -100 = all killed)
CONDITION DETAILS: 10 µM unless noted
This is part of a sample that, as a whole, favours compounds with a hit. Of some 83,000 tested, about 20% had one in any assay.
Answer in %, number only, no unit symbol.

# count of solved cases: 8
CCCCCCCCn1ccc2cc(NC(=O)CN3CCN(c4nc(C)cc(Cl)n4)CC3)ccc21    88.9
O=C(OCc1ccc2c(Cl)cc(Cl)c(O)c2n1)n1cncn1    59.1
CCOC(=O)C(=Cc1cccc(Br)c1)C(=O)OCC    45.2
Cc1ccc(-c2nc(/C=C3/C(=O)Nc4ccccc43)c3ccccn23)cc1    88.7
CCCCCCCCCCCCCCCCCCOc1ccccc1CC(=O)NCC[N+]1(C)CCCC1    70.5
CC(C)OC(=O)c1ccc2[nH]c(O)c(C(=Nc3ccc(N(C)C(=O)CN4CCN(C)CC4)cc3)c3ccccc3)c2c1    20.1
COc1ccc(OC)c(C(=O)/C=C/c2cc3c(c(OC)c2OC)OCO3)c1    92
C/C(=C(/c1ccc(Cl)cc1)c1ccc(OCCN2CCCC2)cc1)c1ccc(Cl)cc1    107

Next item in the queue.
Q. Please report the recorded growth for `COC(=O)[C@]1(C)CCC[C@]2(C)[C@H]3C[C@H]4C(C(C)C)=C[C@]3(CC[C@H]21)[C@H]1[C@@H]4[C@@H](OCCC#N)CC[C@@H]1OCCC#N` .
A. 46.1

====

System: SW-620 colon
ASSAY COMMENT: NCI-60 one-dose screen, 48 h (100 = growth as untreated, 0 = no growth, -100 = all killed)
CONDITION DETAILS: 10 µM unless noted
Description: Growth inhibition of the SW-620 human tumor cell line is measured as a screen for anti-cancer activity. Cells are grown in 96 well plates and exposed to the test compound for 48 hours. Compounds are tested at a single concentration, which is 10^-5 M for most compounds. The reported endpoint is percent growth (GI% or GIPRCNT), where numbers from 0 - 100% represent growth inhibition, and numbers from -100% - 0 represent cell death. For example, a value of 40 represents 60% growth inhibition. […]
This is part of a sample that, as a whole, favours compounds with a hit. Of some 83,000 tested, about 20% had one in any assay.
# growth annotations
Answer in %, number only, no unit symbol.

# count of solved cases: 2
O=C1c2c(c3c4ccccc4[nH]c3c3ccc4ccccc4c23)C(=O)N1CCN1CCCCC1    30.5
O=C(CI)NC1Oc2ccccc2-c2oc(=O)c(-c3ccccc3)cc21 (stereo not given)    -48.3

Q. Please report the recorded growth for `O=C(Nc1ccc(NC(=O)c2cc(=O)[nH]c3ccccc23)cc1)Nc1cccc(C(F)(F)F)c1` .
A. 59.6

Q. Also check `O=c1c2cc(-c3ccccc3)sc2nc2sc(-c3ccccc3)nn12`
A. 103

====

Test system: SF-268 CNS
ASSAY COMMENT: NCI-60 one-dose screen, 48 h (100 = growth as untreated, 0 = no growth, -100 = all killed)
CONDITION DETAILS: 10 µM unless noted
The panel holds about 83,000 compounds, 20% with a hit somewhere; the sample as a whole holds those more often.
MEASURE: growth (%)
Answer in %, number only, no unit symbol.

# count of solved cases: 6
COc1ccc(C(c2cc(OC)c(OC)c(OC)c2)N2CCN(c3ccccc3)CC2)cc1 (stereo not drawn)    95.8
Cc1nc(-c2ccccc2)cc2c(O)c(C(=O)NN)[nH]c(=O)c12    96.2
COc1ccc(C(=S)N2CCN(c3ccccc3Cl)CC2)cc1OC    99.4
CC(=O)OC[C@]12CCC(C)(C)C[C@H]1[C@@]1(O)[C@H](O)C[C@@H]3[C@@]4(C)CCCNC(C)(C)[C@@H]4CC[C@@]3(C)[C@]1(C)CC2    106
Cn1c(-c2ccc(Br)cc2)c(O)c(=O)c2c(F)cccc21    47
O=C1NCCC12CCN(c1c(Cl)cncc1-c1ccc(O)cc1)CC2    82.5

Q. Please report the recorded growth for `CN(C)CC(=O)Nc1ccc2ncnc(Nc3ccc(Oc4cccc(C(F)(F)F)c4)c(Cl)c3)c2c1` .
A. 61.3

Q. Also check COc1cc2c(c(OC)c1OC)CCC(c1cccc(C(=O)Nc3cccc(Br)c3)c1)O2 (stereo not drawn)
A. 67.1

Q. Also check `O=C1/C(=C/c2ccc(Cl)c(Cl)c2)CN(C(=O)C(Cl)Cl)C/C1=C\c1ccc(Cl)c(Cl)c1`
A. -64.7

Q. Also check `CC(C)(C)n1cc(-c2ccnc(NCCNS(=O)(=O)c3cccc4ccccc34)c2)c(-c2cccc(F)c2)n1`
A. 29.5

Q. Also check `C[C@H](NC(=O)[C@@H](C)N)[C@H](Oc1ccc2c(cnn2-c2ccc(F)cc2)c1)c1ccc2c(c1)OCCO2`
A. 42.5
